- Assayed system: T1, human SIRPα v2 on CHOK1 cells (human, UniProt P78324 31-504)
- T1 construct: whole, on cells; also called CHOK1-hSIRPα v2; cell surface human SIRPα v2
- T1 sequence (P78324 other isoform, or with tags, fused parts or gaps limits assumed): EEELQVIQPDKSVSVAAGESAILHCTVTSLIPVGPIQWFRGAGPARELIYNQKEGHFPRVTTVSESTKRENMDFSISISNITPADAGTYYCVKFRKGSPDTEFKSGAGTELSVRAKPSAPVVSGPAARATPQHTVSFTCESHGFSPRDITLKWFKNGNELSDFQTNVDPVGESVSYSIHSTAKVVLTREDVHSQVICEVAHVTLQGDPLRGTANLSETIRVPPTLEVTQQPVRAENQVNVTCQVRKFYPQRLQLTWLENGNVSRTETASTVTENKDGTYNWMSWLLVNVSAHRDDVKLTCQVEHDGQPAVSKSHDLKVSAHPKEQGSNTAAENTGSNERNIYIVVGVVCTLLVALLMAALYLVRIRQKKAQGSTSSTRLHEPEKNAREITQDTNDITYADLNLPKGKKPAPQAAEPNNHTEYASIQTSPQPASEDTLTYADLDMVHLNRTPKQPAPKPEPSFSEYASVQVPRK
- Test: FACS, CHOK1 cells stably expressing human SIRPα v2
Measurement name: pEC50
Note on pEC50: it is the negative log10 of concentration, concentration in mol/L.

Query (binder): Anti-SIRPα antibody C42 (antibody, human IgG4, V domains shown, Mouse variable regions; also called 042c) VH: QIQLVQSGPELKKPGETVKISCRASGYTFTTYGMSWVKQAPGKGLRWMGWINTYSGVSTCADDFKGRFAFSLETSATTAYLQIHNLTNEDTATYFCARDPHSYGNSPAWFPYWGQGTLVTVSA VL: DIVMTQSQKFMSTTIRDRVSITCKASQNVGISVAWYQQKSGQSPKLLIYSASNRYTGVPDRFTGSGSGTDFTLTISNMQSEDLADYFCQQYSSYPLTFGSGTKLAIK ; field requested: pEC50
8.38
